Source of measurements: the kinase profiling compilation of Christmann-Franck et al. (2016)

- EXPERIMENTAL_TARGET: UniProt:Q16644
- Sequence (Q16644 whole entry, looked up): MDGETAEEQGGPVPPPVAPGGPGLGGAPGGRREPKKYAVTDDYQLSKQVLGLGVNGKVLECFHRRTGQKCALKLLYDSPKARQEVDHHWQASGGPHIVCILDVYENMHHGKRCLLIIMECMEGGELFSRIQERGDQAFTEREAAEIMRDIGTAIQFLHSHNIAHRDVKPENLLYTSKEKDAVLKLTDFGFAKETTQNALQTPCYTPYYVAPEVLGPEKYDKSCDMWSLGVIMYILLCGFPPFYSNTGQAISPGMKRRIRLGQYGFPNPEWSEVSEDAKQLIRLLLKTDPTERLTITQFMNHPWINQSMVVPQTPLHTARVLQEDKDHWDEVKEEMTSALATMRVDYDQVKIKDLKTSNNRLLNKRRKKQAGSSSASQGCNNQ
- TEST_DESCRIPTION: radiometric filter-binding kinase assay, Kinase HotSpot
- CONDITION_SUMMARY: compound 0.5 µM; ATP 10 µM
PROPERTY_NAME: residual activity (%)
Value expressed in %; do not type the unit.

Example results:
- ENTRY_SMILES: "Cc1cc(Nc2nc(-c3ccccc3)nc3ccccc23)n[nH]1"
  PROPERTY_NAME: "residual activity"
  UNITS_LABEL: "%"
  NUMERIC_READOUT: 81
- ENTRY_SMILES: "O=c1cc(N2CCOCC2)oc2c(-c3ccccc3)cccc12"
  PROPERTY_NAME: "residual activity"
  UNITS_LABEL: "%"
  NUMERIC_READOUT: 101
- ENTRY_SMILES: "CCOc1cc2ncnc(Nc3cccc(Br)c3)c2cc1OCC"
  PROPERTY_NAME: "residual activity"
  UNITS_LABEL: "%"
  NUMERIC_READOUT: 87.4
- ENTRY_SMILES: "O=c1c2ccccc2[nH]c(=S)n1CCN1CCC(=C(c2ccc(F)cc2)c2ccc(F)cc2)CC1"
  PROPERTY_NAME: "residual activity"
  UNITS_LABEL: "%"
  NUMERIC_READOUT: 109
- ENTRY_SMILES: "N/C(=N\\N=C/c1ccc(-c2cccc([N+](=O)[O-])c2)o1)N[N+](=O)[O-]"
  PROPERTY_NAME: "residual activity"
  UNITS_LABEL: "%"
  NUMERIC_READOUT: 95.4
- ENTRY_SMILES: "N#C/C(=C1/Nc2ccccc2S1)c1ccnc(NCCc2cccnc2)n1"
  PROPERTY_NAME: "residual activity"
  UNITS_LABEL: "%"
  NUMERIC_READOUT: 102

Fill in: residual activity of Nc1ncnc2c1cnn2-c1ccccc1 is ___
96.6

Dear colleague, I am looking for the recorded residual activity of the following compound: COc1cccc(-c2cc(=O)c3ccccc3o2)c1N
88.1

# residual activity lookup, item COc1cc2c(Nc3ccc(Br)cc3F)ncnc2cc1OCC1CCN(C)CC1
98.5

Item under review: COc1cc2ncnc(Nc3ccc(O)c(Br)c3)c2cc1OC . Reported residual activity?
96.2

Given the entry O=S(=O)(NCCNC/C=C/c1ccc(Br)cc1)c1cccc2cnccc12 , report its measured residual activity.
97.8

###

- EXPERIMENTAL_TARGET: CDK6 CCND1 (human) (UniProt Q00534+P24385)
- Sequence (P24385 whole entry, looked up): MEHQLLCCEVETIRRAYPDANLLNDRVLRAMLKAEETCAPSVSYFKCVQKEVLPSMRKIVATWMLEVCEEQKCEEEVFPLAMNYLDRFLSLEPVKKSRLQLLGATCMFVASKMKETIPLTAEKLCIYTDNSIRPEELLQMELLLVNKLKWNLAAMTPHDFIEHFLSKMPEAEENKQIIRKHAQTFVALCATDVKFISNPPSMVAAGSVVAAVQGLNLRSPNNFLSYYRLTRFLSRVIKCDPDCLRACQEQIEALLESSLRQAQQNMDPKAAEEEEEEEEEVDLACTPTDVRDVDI
- Sequence (Q00534 whole entry, looked up): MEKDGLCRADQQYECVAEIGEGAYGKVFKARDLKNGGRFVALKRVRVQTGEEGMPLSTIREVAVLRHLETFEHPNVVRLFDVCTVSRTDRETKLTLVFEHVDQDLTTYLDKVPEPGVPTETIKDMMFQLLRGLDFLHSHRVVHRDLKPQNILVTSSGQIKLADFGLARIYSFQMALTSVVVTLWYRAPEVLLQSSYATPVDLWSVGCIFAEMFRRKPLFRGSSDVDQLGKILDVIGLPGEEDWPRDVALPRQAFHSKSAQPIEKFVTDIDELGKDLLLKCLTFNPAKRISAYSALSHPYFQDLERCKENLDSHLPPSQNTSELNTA
- TEST_DESCRIPTION: radiometric filter-binding kinase assay, Kinase HotSpot
- CONDITION_SUMMARY: compound 0.5 µM; ATP 10 µM
PROPERTY_NAME: residual activity (%)
Just the number please, in %, no unit attached.

Some entries whose results are on file:
- ENTRY_SMILES: "CC(C)(C)n1nc(Cc2cccc3ccccc23)c2c(N)ncnc21"
  UNITS_LABEL: "%"
  residual activity: 98.6
- ENTRY_SMILES: "Nc1ncnc2c1cnn2-c1ccccc1"
  UNITS_LABEL: "%"
  residual activity: 94.7
- ENTRY_SMILES: "N#Cc1c(NC(=O)c2cccc3ccccc23)sc2c1CCCC2"
  UNITS_LABEL: "%"
  residual activity: 94
- ENTRY_SMILES: "CCCCc1c(-c2ccc(O)cc2)[nH]c2nccnc12"
  UNITS_LABEL: "%"
  residual activity: 61.6

Would you kindly share the measured residual activity for O=S(=O)(NCCNC/C=C/c1ccc(Br)cc1)c1cccc2cnccc12 ?
77.9

For COc1cc2c(N3CCN(C(=O)Nc4ccc(OC(C)C)cc4)CC3)ncnc2cc1OCCCN1CCCCC1 , what is its reported residual activity?
94.6

Reported residual activity, compound c1ccc(-c2cnc(Nc3ccc(OCCN4CCCC4)cc3)s2)cc1 : ____
40.3
